src = patent US20220112187A1

target: human TLR9 (Homo sapiens, UniProt Q9NR96); assay: HEK293-Blue-hTLR-9 cells assay (SEAP reporter, ODN2006 stimulation); settings: HEK293-Blue-hTLR9 cells, ODN2006 ligand, 20 hrs incubation
Sequence (Q9NR96 26-1032): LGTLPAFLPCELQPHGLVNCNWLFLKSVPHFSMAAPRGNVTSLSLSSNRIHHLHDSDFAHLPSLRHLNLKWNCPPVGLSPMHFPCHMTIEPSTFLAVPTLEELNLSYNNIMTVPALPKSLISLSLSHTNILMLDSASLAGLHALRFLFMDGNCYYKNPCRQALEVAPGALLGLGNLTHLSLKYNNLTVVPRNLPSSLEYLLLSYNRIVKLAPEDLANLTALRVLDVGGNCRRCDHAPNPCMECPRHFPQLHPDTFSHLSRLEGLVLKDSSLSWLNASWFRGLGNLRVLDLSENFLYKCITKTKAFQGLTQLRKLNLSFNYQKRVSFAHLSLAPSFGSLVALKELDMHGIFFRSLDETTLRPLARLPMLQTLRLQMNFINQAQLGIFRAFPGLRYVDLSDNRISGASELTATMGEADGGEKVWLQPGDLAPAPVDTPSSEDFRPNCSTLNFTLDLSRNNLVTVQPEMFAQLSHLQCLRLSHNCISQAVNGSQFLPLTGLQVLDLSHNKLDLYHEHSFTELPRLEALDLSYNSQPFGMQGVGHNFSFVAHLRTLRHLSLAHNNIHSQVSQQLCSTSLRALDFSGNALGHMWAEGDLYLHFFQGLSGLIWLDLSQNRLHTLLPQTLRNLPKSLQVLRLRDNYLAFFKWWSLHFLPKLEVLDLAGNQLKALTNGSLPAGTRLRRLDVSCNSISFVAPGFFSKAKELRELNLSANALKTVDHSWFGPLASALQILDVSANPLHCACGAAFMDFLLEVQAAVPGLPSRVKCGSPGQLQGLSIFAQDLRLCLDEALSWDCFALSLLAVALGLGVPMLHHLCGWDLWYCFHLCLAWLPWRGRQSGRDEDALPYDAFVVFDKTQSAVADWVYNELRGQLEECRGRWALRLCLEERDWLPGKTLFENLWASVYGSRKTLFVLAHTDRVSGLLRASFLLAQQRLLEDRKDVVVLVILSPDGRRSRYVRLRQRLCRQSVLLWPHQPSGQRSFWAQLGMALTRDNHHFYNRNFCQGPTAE
Consider the following compounds; for each one, report its IC50.
Form entry: value (nM) — number only.

Quick one: IC50 for "C[C@@H]1CN(c2ccc(C#N)n3nccc23)C[C@H](CN2CCC(N3CCCCC3)CC2)O1" ?
520

Name the reported IC50 value associated with the compound "C[C@@H]1CN(c2ccc(C#N)n3nccc23)C[C@H](CN2CCC3(CCNCC3)CC2)O1"
90

Consider the compound "C[C@@H]1CN(c2ccc(C#N)n3nccc23)C[C@H](CN2CCC(CN)CC2)O1" and give its measured IC50.
200

What does the record list as IC50 for C[C@@H]1CN(c2ccc(C#N)n3nccc23)C[C@H](CN2CCCC3(CCCNC3)C2)O1 (some centres unmarked) ?
250

Which IC50 reading was recorded for the compound "C[C@@H]1CN(c2ccc(C#N)n3nccc23)C[C@H](CN2CCC3(CCCN3)CC2)O1" ?
160

Find the recorded IC50 belonging to C[C@@H]1CN(c2ccc(C#N)n3nccc23)C[C@H](CN2CCC[C@@H]3NCCC32)O1 (some centres unmarked) and report it.
5900

Quick one: IC50 for "C[C@@H]1CN(c2ccc(C#N)n3nccc23)C[C@H](CN2CCOC3(CCNCC3)C2)O1" ?
510

Given the entry "C[C@@H]1CN(c2ccc(C#N)n3nccc23)C[C@H](CN2CCNCC2)O1" , report its measured IC50.
890

Need IC50 of C[C@@H]1CN(c2ccc(C#N)n3nccc23)C[C@H](CN2CC3CCNCC3C2)O1 (some centres unmarked) , thanks.
120

Reported IC50 for C[C@@H]1CN(c2ccc(C#N)n3nccc23)C[C@H](CN2CCC3(CCNC3)C2=O)O1 (some centres unmarked) : what is it?
16000

Which value of IC50 has been reported for "C[C@@H]1CN(c2ccc(C#N)n3nccc23)C[C@H](CN2CC3(CC(N)C3)C2)O1" in the records?
97

For C[C@@H]1CN(c2ccc(C#N)n3ncc(F)c23)C[C@H](CN2CCC3(CCCNC3)C2)O1 (some centres unmarked) , what is its reported IC50?
130

Quick one: IC50 of "C[C@@H]1CN(c2ccc(C#N)n3nccc23)C[C@H](CN2CCCC3(CNC3)C2)O1" ?
120

What value of IC50 has been recorded for this entry: C[C@@H]1CN(c2ccc(C#N)n3nccc23)C[C@H](CN2CCNCC2Cc2ccccc2)O1 (some centres unmarked)
1500

Bench note: what IC50 did CC1CC(N)CCN1C[C@H]1CN(c2ccc(C#N)n3nccc23)C[C@@H](C)O1 (some centres unmarked) show?
230

Reported IC50 for "C[C@@H]1CN(c2ccc(C#N)n3nccc23)C[C@H](CN2C3CCC2CNC3)O1" : what is it?
10000

Which value of IC50 has been reported for "C[C@@H]1CN(c2ccc(C#N)n3nccc23)C[C@H](CN2CC3(CCNCC3)C2)O1" in the records?
100

Tell me the measured IC50 of "C[C@@H]1CN(c2ccc(C#N)n3nccc23)C[C@H](CN2CC3(CCCNC3)C2)O1" , please.
80

Which value of IC50 has been reported for "C[C@@H]1CN(c2ccc(C#N)n3nccc23)C[C@H](CN2CCCC3(CCNCC3)C2)O1" in the records?
65

Quick one: IC50 for C[C@@H]1CN(c2ccc(C#N)n3nccc23)C[C@H](CN2C3CCCC2CC(N)C3)O1 (some centres unmarked) [Example 65] ?
140

Given the entry "C[C@@H]1CN(c2ccc(C#N)n3nccc23)C[C@H](CN2CCN(C)CC2)O1" , report its measured IC50.
23000

Recorded IC50 for C[C@@H]1CN(c2ccc(C#N)n3nccc23)C[C@H](CN2CCC3NCC3C2)O1 (some centres unmarked) , please?
200

May I ask what IC50 has been recorded for C[C@@H]1CN(c2ccc(C#N)n3nccc23)C[C@H](CN2C[C@H]3CC[C@@H](N(C)C)[C@H]3C2)O1 (racemic) ?
290

Looking for the measured IC50 of C[C@@H]1CN(c2ccc(C#N)n3nccc23)C[C@H](CN2CCC3(CN(C)CCO3)C2)O1 (some centres unmarked) , can you help?
3500

// IC50 lookup, key: "C[C@@H]1CN(c2ccc(C#N)n3nccc23)C[C@H](CN2CCNC3(CC3)C2)O1"
13000

I have this compound here, C[C@@H]1CN(c2ccc(C#N)n3nccc23)C[C@H](CN2CCC3(CCNC3)C2)O1 (some centres unmarked) , and I need its recorded IC50.
31

Which value of IC50 has been reported for C[C@@H]1CN(c2ccc(C#N)n3nccc23)C[C@H](CN2CCC3(CCCNC3)C2)O1 (some centres unmarked) in the records?
88

Which IC50 value is on record for C[C@@H]1CN(c2ccc(C#N)n3nccc23)C[C@H](CN2C3CCCC2CC(N)C3)O1 (some centres unmarked) [Example 66] ?
120

// returns reported IC50 for input "C[C@@H]1CN(c2ccc(C#N)n3nccc23)C[C@H](CN2CCC3(CCN3)CC2)O1"
250

Give the measured IC50 of "C[C@@H]1CN(c2ccc(C#N)n3nccc23)C[C@H](CN2CCC3(CCNC3)CC2)O1" .
92

So what's the measured IC50 for this one? C[C@@H]1CN(c2ccc(C#N)n3nccc23)C[C@H](CN2CCCC3CNCC32)O1 (some centres unmarked)
6100

---

Consider the following compounds; for each one, report its pIC50.
Target: human TLR8 (Homo sapiens)
Sequence (Q9NR97 27-1041): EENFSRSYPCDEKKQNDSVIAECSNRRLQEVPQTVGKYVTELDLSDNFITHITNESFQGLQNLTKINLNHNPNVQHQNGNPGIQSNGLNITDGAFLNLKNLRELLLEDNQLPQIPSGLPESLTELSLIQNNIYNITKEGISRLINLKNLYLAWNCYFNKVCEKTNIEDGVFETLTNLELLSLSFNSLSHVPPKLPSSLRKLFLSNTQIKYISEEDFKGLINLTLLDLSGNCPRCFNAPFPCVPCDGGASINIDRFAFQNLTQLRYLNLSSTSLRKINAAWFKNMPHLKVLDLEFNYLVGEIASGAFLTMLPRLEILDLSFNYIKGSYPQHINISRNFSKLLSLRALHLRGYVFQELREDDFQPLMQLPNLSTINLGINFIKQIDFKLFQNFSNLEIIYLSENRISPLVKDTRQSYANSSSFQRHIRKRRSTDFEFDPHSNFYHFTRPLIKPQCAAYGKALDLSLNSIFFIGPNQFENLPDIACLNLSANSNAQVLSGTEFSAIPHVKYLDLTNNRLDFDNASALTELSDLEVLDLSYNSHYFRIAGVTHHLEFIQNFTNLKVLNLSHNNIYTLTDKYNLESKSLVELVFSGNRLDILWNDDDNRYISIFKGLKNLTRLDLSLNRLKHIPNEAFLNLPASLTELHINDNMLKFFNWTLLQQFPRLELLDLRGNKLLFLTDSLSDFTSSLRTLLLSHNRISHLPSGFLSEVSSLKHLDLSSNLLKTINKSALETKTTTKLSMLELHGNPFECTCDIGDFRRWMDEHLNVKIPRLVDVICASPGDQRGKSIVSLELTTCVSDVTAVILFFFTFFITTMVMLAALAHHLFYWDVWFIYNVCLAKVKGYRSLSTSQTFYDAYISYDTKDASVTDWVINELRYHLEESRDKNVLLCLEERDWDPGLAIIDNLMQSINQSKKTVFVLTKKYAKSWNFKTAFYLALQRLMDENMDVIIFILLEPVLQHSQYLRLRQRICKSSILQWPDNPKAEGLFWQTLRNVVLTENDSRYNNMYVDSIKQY
Assay: HEK293-Blue-hTLR-8 cells assay (SEAP reporter, R848 stimulation)
Conditions: HEK293-Blue-hTLR8 cells, R848 ligand, 20 hrs incubation
When answering, recall that pIC50 equals minus log10 of the concentration in mol/L, and write that number alone.

Looking for the measured pIC50 of CC1CNCCN1C[C@H]1CN(c2ccc(C#N)n3nccc23)C[C@@H](C)O1 (single isomer, unassigned) [Example 50A] , can you help?
7.19

Look up pIC50: C[C@@H]1CN(c2ccc(C#N)n3nccc23)C[C@H](CN2CC3(CCNC3)CC2=O)O1 (some centres unmarked)
6.21

Can you look up the measured pIC50 of C[C@@H]1CN(c2ccc(C#N)n3nccc23)C[C@H](CN2CCCC3(CCCNC3)C2)O1 (some centres unmarked) for me?
7.39

Give its pIC50 value. Item: "C[C@@H]1CN(c2ccc(C#N)n3nccc23)C[C@H](CN2CCC3(CCNCC3)C2)O1"
6.46

# pIC50 lookup, item "C[C@@H]1CN(c2ccc(C#N)n3nccc23)C[C@H](CN2CCN(C)CC2)O1"
6.74

For C[C@@H]1CN(c2ccc(C#N)n3nccc23)C[C@H](CN2CCC3(CCCNC3)C2)O1 (some centres unmarked) , what is its reported pIC50?
7.06

Returns the measured pIC50 for the input compound. Input: "C[C@@H]1CN(c2ccc(C#N)n3nccc23)C[C@H](CN2CCC23CNC3)O1"
6.06

Form field: reported pIC50 of "C[C@@H]1CN(c2ccc(C#N)n3nccc23)C[C@H](CN2CCC(N3CCCCC3)CC2)O1"
7.72
